target: tubulin (colchicine site) (Bos taurus, UniProt P81947+Q6B856); assay: Inhibition of [3H]colchicine binding to tubulin; set-up: species or system bovine; settings: read-out: colchicine binding inhibition (%)
Sequence (P81947 whole entry): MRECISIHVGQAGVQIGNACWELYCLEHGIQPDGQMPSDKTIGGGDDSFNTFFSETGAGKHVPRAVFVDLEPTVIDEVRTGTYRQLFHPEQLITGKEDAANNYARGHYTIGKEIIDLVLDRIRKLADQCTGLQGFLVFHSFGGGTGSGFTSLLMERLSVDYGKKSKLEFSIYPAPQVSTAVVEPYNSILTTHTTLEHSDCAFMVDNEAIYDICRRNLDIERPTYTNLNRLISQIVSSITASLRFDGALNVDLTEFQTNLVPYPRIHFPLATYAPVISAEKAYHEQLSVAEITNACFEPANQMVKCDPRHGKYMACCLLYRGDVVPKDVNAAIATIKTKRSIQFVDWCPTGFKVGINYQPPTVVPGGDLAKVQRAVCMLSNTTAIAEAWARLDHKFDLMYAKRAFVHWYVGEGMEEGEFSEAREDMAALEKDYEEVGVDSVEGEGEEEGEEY
Sequence (Q6B856 whole entry): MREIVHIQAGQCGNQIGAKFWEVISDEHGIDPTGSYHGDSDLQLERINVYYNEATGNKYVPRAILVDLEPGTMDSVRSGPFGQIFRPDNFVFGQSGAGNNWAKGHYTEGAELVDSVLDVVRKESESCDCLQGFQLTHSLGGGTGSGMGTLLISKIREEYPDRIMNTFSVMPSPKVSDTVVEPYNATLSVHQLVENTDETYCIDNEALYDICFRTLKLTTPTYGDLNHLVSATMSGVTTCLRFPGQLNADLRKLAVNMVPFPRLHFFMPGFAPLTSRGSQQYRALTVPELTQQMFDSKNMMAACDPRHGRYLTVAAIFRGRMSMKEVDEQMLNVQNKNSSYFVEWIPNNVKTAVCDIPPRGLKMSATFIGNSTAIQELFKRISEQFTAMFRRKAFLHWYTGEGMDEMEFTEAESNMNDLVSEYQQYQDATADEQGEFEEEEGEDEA
Quick list: inhibition at 5 µM per entry.
Provide the reading as a plain figure in %.

## Input Would you kindly share the measured inhibition at 5 µM for c1ccc(-c2cccc(Nc3ncnc4cc5c(cc34)OCO5)c2)cc1 ?
## Output 72

## Input Also, c1ccc(-c2cccc(Nc3ncnc4cc5c(cc34)OCCO5)c2)nc1 please.
## Output 25

## Input Try this compound next: Cl.c1cc(Nc2ncnc3cc4c(cc23)OCCO4)cc(-c2cccs2)c1
## Output 75

## Input What would you report for c1cc(Nc2ncnc3cc4c(cc23)OCCO4)cc(-c2ccc[nH]2)c1 ?
## Output 33

## Input Lookup c1ccc(-c2cccc(Nc3ncnc4cc5c(cc34)OCCCO5)c2)cc1
## Output 34

Then this compound:
## Input I'd like to know its inhibition at 5 µM. The compound in question is c1ccc(-c2cccc(Nc3ncnc4cc5c(cc34)OCCO5)c2)cc1
## Output 41
